As shown below, each of these compounds has a reported IC50 value.
tested on: Zidovudine-Sensitive Primary Clinical HIV-1 Isolates; test: p24 drug susceptibility assay, zidovudine-sensitive primary clinical HIV-1 isolates in PBMC; type: cell-based; conditions: Human immunodeficiency virus 1, PBMC, read-out: IC50, μM (p24), isolate 92BR003 (B/B, Brazil); PBMC

COC(=O)C(C)NP(=O)(OC[C@@H]1C=C[C@H](n2cc(C)c(=O)[nH]c2=O)O1)Oc1ccc(Br)cc1 (some centres unmarked) [Compound 1c] = 0.0006 µM

Q. Recall the recorded IC50 for Cc1cn([C@H]2C=C[C@@H](CO)O2)c(=O)[nH]c1=O [d4T, 2′,3′-didehydro-2′,3′-dideoxythymidine] with Zidovudine-Sensitive Primary Clinical HIV-1 Isolates and state it.
A. 0.1 µM

====

tested on: HIV-1 (strain: HTLVIIIB); assay: microbe, parasite or virus in culture; format: cell-based; conditions: PBMNC; Table 4; read-out: PBMNC IC50 [RT]
As shown below, each of these compounds has a reported IC50 value.
Include the unit after the number when you answer.

Worked examples, 2 compounds total:
COC(=O)C(C)NP(=O)(OCC1CCC(n2cc(C)c(=O)[nH]c2=O)O1)Oc1ccc(F)cc1 (mixture of isomers) = 3.1 µM
COC(=O)[C@H](C)NP(=O)(OC[C@@H]1CC[C@H](n2cc(C)c(=O)[nH]c2=O)O1)Oc1ccccc1 (stereo partly drawn) = 2.1 µM

Q. Any idea what IC50 was measured for COC(=O)C(C)NP(=O)(OCC1CCC(n2cc(C)c(=O)[nH]c2=O)O1)Oc1ccc([N+](=O)[O-])cc1 (mixture of isomers) ?
A. 2 µM

====

tested on: zidovudine-resistant primary clinical HIV-1 isolates; assay: p24 drug susceptibility assay, NRTI-/zidovudine-resistant primary clinical HIV-1 isolates in PBMC; format: cell-based; settings: Human immunodeficiency virus 1, PBMC, isolate G780-1 (M41L, D67N, K70R, T215F, K219Q); PBMC
testReadout: pIC50
When answering, recall that pIC50 equals minus log10 of the concentration in mol/L, and write that number alone.

Q. Any idea what pIC50 was measured for COC(=O)C(C)NP(=O)(OC[C@@H]1C=C[C@H](n2cc(C)c(=O)[nH]c2=O)O1)Oc1ccc(Br)cc1 (some centres unmarked) [Compound 1c] ?
A. 7.46

====

As shown below, each of these molecules has a reported pIC50 value.
system: zidovudine-resistant primary clinical HIV-1 isolates; experiment: p24 drug susceptibility assay, NRTI-/zidovudine-resistant primary clinical HIV-1 isolates in PBMC; assay type: cell-based; conditions: Human immunodeficiency virus 1, PBMC, isolate S762-4 (M41L, T215Y); PBMC
When answering, recall that pIC50 equals minus log10 of the concentration in mol/L, and write that number alone.

Cc1cn([C@H]2C[C@H](N=[N+]=[N-])[C@@H](CO)O2)c(=O)[nH]c1=O = 5.92

Q. Any idea what pIC50 was measured for COC(=O)C(C)NP(=O)(OC[C@@H]1C=C[C@H](n2cc(C)c(=O)[nH]c2=O)O1)Oc1ccc(Br)cc1 (some centres unmarked) ?
A. 8.10

====

assay: in vitro; conditions: human, CC50, μM
As shown below, each of these compounds has a reported CC50 at 5 days value.
Include the unit after the number when you answer.

Cc1cn([C@H]2C[C@H](N=[N+]=[N-])[C@@H](CO)O2)c(=O)[nH]c1=O [AZT, 3′-azido-3′-deoxythymidine] = 95.6 µM

// next item, CC50 at 5 days requested
Q. Any idea what CC50 at 5 days was measured for Cc1cn([C@H]2C=C[C@@H](CO)O2)c(=O)[nH]c1=O [d4T, 2′,3′-didehydro-2′,3′-dideoxythymidine] ?
A. 4.5 µM

====

test system: NRTI-resistant recombinant HIV-1 isolates; test: p24 assay, multi-NRTI-resistant recombinant HIV-1 clones; format: cell-based; details: Human immunodeficiency virus 1, read-out: IC50 (nM), p24, recombinant clone 7324-1
testReadout: IC50 (nM)
State just the number; it will be interpreted in nM.

Worked examples, 2 molecules total:
COC(=O)C(C)NP(=O)(OC[C@@H]1C=C[C@H](n2cc(C)c(=O)[nH]c2=O)O1)Oc1ccc(Br)cc1 (stereo partly shown) = 13.7
Nc1ccn([C@@H]2CS[C@H](CO)O2)c(=O)n1 = 800

Q. Any idea what IC50 was measured for `CC(C)(C)NC(=O)[C@@H]1CN(Cc2cccnc2)CCN1C[C@@H](O)C[C@@H](Cc1ccccc1)C(=O)N[C@H]1c2ccccc2C[C@H]1O` ?
A. 21.8

====

tested on: zidovudine-resistant primary clinical HIV-1 isolates; assay: p24 drug susceptibility assay, NRTI-/zidovudine-resistant primary clinical HIV-1 isolates in PBMC; type: cell-based; conditions: Human immunodeficiency virus 1, PBMC, isolate S762-4; PBMC, p24
testReadout: pIC50
When answering, recall that pIC50 equals minus log10 of the concentration in mol/L, and write that number alone.

Q. Any idea what pIC50 was measured for COC(=O)C(C)NP(=O)(OC[C@@H]1C=C[C@H](n2cc(C)c(=O)[nH]c2=O)O1)Oc1ccc(Br)cc1 (stereo partly shown) ?
A. 8.10

====

tested on: HIV-1 (strain: HTLVIIIB); experiment: microbe, parasite or virus in culture; type: cell-based; conditions: Human immunodeficiency virus 1, PBMC; peripheral blood mononuclear cells; read-out: IC50 value for inhibition of RT activity
testReadout: IC50

Q. Any idea what IC50 was measured for `Cc1cn([C@H]2C[C@H](N=[N+]=[N-])[C@@H](CO)O2)c(=O)[nH]c1=O` ?
A. 3 nM

====

test system: HIV-1 (HTLVIIIB) in TK-deficient CEM T-cells; experiment: Inhibition of HIV-1 replication in TK-deficient CEM T-cells (p24 / RT activity); type: cell-based; conditions: Human immunodeficiency virus 1, CCRF-CEM, TK-deficient CEM cells; read-out: IC50 value for inhibition of RT activity
testReadout: IC50
Include the unit after the number when you answer.

COC(=O)C(C)NP(=O)(OC[C@H]1O[C@@H](n2cc(C)c(=O)[nH]c2=O)CC1N=[N+]=[N-])Oc1ccc(Br)cc1 (stereo partly shown) = 40 nM
Cc1cn([C@H]2C[C@H](N=[N+]=[N-])[C@@H](CO)O2)c(=O)[nH]c1=O = 200 nM
Cc1cn([C@H]2C=C[C@@H](CO)O2)c(=O)[nH]c1=O [d4T, 2′,3′-didehydro-2′,3′-dideoxythymidine] = 2360 nM

// next item, IC50 requested
Q. Any idea what IC50 was measured for COC(=O)C(C)NP(=O)(OC[C@@H]1C=C[C@H](n2cc(C)c(=O)[nH]c2=O)O1)Oc1ccc(Br)cc1 (stereo partly shown) ?
A. 57 nM

====

system: peripheral blood mononuclear cells; assay: Microculture tetrazolium assay (MTA) cytotoxicity in PBMNC; conditions: viability of PBMC
testReadout: CC50

Q. Any idea what CC50 was measured for COC(=O)C(C)NP(=O)(OC[C@@H]1C=C[C@H](n2cc(C)c(=O)[nH]c2=O)O1)Oc1ccc(Br)cc1 (stereo partly shown) ?
A. > 100 µM

====

test system: zidovudine-resistant primary clinical HIV-1 isolates; assay: p24 drug susceptibility assay, NRTI-/zidovudine-resistant primary clinical HIV-1 isolates in PBMC; format: cell-based; details: Human immunodeficiency virus 1, PBMC, read-out: average IC50 value, mean over 20 zidovudine-resistant primary clinical isolates
testReadout: pIC50
When answering, recall that pIC50 equals minus log10 of the concentration in mol/L, and write that number alone.

Q. Any idea what pIC50 was measured for COC(=O)C(C)NP(=O)(OC[C@@H]1C=C[C@H](n2cc(C)c(=O)[nH]c2=O)O1)Oc1ccc(Br)cc1 (stereo partly shown) [Compound 1c] ?
A. 8.06

====

test system: zidovudine-resistant primary clinical HIV-1 isolates in CD4-expressing HeLa cell line HT4-6C; experiment: Syncytial focus (plaque) formation assay in HT4-6C cells; type: cell-based; conditions: Human immunodeficiency virus 1, HeLa, read-out: IC50, μM(Plaque Assay), isolate H112-2 (no RT mutation, ZDV-sensitive control)
As shown below, each of these molecules has a reported IC50 value.
State just the number; it will be interpreted in µM.

Q. Any idea what IC50 was measured for COC(=O)C(C)NP(=O)(OC[C@@H]1C=C[C@H](n2cc(C)c(=O)[nH]c2=O)O1)Oc1ccc(Br)cc1 (some centres unmarked) [Compound 1c] ?
A. 0.015

Q. Any idea what IC50 was measured for Cc1cn([C@H]2C[C@H](N=[N+]=[N-])[C@@H](CO)O2)c(=O)[nH]c1=O [AZT, 3′-azido-3′-deoxythymidine] ?
A. 0.015

====

test system: HIV-1 (HTLVIIIB) in TK-deficient CEM T-cells; assay: Inhibition of HIV-1 replication in TK-deficient CEM T-cells (p24 / RT activity); assay type: cell-based; conditions: Human immunodeficiency virus 1, T-cell, TK-deficient CEM; unit not printed in Table 2 (2.355 = 2355 nM); read-out: IC50 [RT]
testReadout: pIC50
When answering, recall that pIC50 equals minus log10 of the concentration in mol/L, and write that number alone.

Cc1cn([C@H]2C=C[C@@H](CO)O2)c(=O)[nH]c1=O [d4T, 2′,3′-didehydro-2′,3′-dideoxythymidine] = 5.63

// next item, pIC50 requested
Q. Any idea what pIC50 was measured for COC(=O)C(C)NP(=O)(OC[C@@H]1C=C[C@H](n2cc(C)c(=O)[nH]c2=O)O1)Oc1ccc(Br)cc1 (some centres unmarked) ?
A. 7.24

The measurements presented in this section are drawn from patent US20070015733A1.
